# Target Entity: gEgI WT: HSV2 gEgI heterodimer comprising gE and gI wildtype ectodomains (HSV2, UniProt P89475 21-416; P06764 21-256)
# Method Description: SPR binning; gEgI captured by mAb 39
Item-by-item account of RU
Mention the unit after the number when you answer.

{"Binder": "mAb clone 17 (antibody, V domains shown) VH: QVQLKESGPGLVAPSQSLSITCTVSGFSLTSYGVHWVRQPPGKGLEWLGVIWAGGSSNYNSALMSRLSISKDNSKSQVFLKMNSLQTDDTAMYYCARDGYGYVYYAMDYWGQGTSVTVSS VL: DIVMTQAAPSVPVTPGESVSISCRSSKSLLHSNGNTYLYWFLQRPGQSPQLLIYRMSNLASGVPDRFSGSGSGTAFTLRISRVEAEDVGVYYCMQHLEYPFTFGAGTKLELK", "RU": "0.5 RU"}
{"Binder": "mAb clone 19 (antibody, V domains shown) VH: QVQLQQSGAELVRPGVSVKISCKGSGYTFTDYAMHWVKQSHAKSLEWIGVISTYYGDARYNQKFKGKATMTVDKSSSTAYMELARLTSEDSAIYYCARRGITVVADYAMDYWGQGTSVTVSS VL: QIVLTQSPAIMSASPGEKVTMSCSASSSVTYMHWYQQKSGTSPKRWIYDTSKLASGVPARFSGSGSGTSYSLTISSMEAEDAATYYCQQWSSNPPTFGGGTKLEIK", "RU": "16.2 RU"}

Next:
Request: Return the recorded RU value; entry: mAb clone 34 (antibody, V domains shown) VH: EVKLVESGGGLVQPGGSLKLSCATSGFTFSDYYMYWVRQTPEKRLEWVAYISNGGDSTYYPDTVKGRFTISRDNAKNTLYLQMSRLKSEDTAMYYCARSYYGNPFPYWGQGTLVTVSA VL: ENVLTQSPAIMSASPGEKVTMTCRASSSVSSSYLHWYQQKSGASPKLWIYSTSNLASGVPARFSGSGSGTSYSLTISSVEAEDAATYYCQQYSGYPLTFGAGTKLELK
Result: -1.5 RU
